So I've got a bunch of sequences here, and I need their self-splicing fitness (ln) values.
Test: self-splicing fitness, log relative to wild type (ln ratio); higher = more splicing; Tetrahymena group I intron in knt gene, E. coli kanamycin selection, DiMSum; sequences stand for … in CUCUCU…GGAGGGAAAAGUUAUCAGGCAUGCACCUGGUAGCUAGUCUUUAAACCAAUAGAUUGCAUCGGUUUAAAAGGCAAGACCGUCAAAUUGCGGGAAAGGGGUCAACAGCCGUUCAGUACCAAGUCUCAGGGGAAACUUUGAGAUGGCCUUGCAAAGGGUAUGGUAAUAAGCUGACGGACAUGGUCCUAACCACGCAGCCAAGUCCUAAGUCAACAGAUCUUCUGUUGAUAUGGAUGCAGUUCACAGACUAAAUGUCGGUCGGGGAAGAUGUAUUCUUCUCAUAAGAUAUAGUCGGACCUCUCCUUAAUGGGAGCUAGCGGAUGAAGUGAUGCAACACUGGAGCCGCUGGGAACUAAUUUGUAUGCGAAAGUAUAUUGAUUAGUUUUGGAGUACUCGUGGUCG;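 also: selection with 25 µg/mL kanamycin versus none on LB agar overnight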
Conditions: 37 °C
Give bare numbers.

# count of solved cases: 5
record.sequence: GAUUAGCAAUAUUACGUAUC
self-splicing fitness (ln): -2.77
--
record.sequence: CAAAAGCAAUAUUACGUCUG
self-splicing fitness (ln): -0.0271
--
record.sequence: UUGGAGCAAUAUUACGUGAG
self-splicing fitness (ln): -1.54
--
record.sequence: UGGGAGCAAUAUUACGAACA
self-splicing fitness (ln): -1.02
--
record.sequence: UGCAAGCAAUAUUACGGUGG
self-splicing fitness (ln): -1.21

For each listed entry, give its self-splicing fitness (ln).
1. UAAGAGCAAUAUUACGAAAU
2. ACAGAGCAAUAUUACGCUGG
3. AUAUAGCAAUAUUACGACUG

Outgoing:
1: -1.61; 2: -2.53; 3: -1.65
